src = ChEMBL document CHEMBL2417468

System: KB
Experiment: Growth inhibition of human KB cells after 48 hrs by sulforhodamine B assay
Format: functional
Active and inactive are the calls of the source. The rule behind the calls is not given here.
measurementLabel: GI50

GET /values?readout=GI50&item= "COc1cc([C@@H]2c3cc4c(cc3[C@@H](NC(=O)c3ccc(NC(=O)Nc5cccc6ccccc56)cc3)[C@H]3COC(=O)[C@H]23)OCO4)cc(OC)c1OC"
inactive

Data request, read-out GI50, for "COc1cc([C@@H]2c3cc4c(cc3[C@@H](NC(=O)c3ccc(NC(=O)NCCCl)cc3)[C@H]3COC(=O)[C@H]23)OCO4)cc(OC)c1OC"
210 nM

Would you kindly share the measured GI50 for "COc1cc([C@@H]2c3cc4c(cc3[C@@H](NC(=O)c3ccc(NC(=O)Nc5cccc(Cl)c5)cc3)[C@H]3COC(=O)[C@H]23)OCO4)cc(OC)c1OC" ?
inactive

Given "COc1cc([C@@H]2c3cc4c(cc3[C@@H](NC(=O)c3ccc(NC(=O)Nc5ccc(F)c(Cl)c5)cc3)[C@H]3COC(=O)[C@H]23)OCO4)cc(OC)c1OC" , state its recorded GI50.
2010 nM

Continuing:
What does the record list as GI50 for "COc1cc([C@@H]2c3cc4c(cc3[C@@H](NC(=O)c3ccc(NC(=O)NCc5ccco5)cc3)[C@H]3COC(=O)[C@H]23)OCO4)cc(OC)c1OC" ?
1930 nM

// GI50 lookup, key: "COc1cc([C@@H]2c3cc4c(cc3[C@@H](NC(=O)c3ccc(NC(=O)Nc5c(Cl)cccc5Cl)cc3)[C@H]3COC(=O)[C@H]23)OCO4)cc(OC)c1OC"
2800 nM

Value lookup for GI50; key = "COc1cccc2c1C(=O)c1c(O)c3c(c(O)c1C2=O)C[C@@](O)(C(=O)CO)C[C@@H]3O[C@H]1C[C@H](N)[C@H](O)[C@H](C)O1"
170 nM

What measured GI50 goes with "COc1cc([C@@H]2c3cc4c(cc3[C@@H](NC(=O)c3ccc(NC(=O)Nc5cc(C(F)(F)F)cc(C(F)(F)F)c5)cc3)[C@H]3COC(=O)[C@H]23)OCO4)cc(OC)c1OC" ?
2600 nM
